Test: small-molecule microarray binders of probe aWnt5a, primary screen, biochemical, biotinylated probe, 635/667 nm fluorescence (AID 1113);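 also: score merges 667 nm fluorescence intensity with signal-to-noise per printed feature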
Details: higher = more signal
experimental-endpoint: composite z-score

>>> measured_value("CON=C(C)CCN1CCCCc2nc(C)c(C)cc21")
0.11
>>> measured_value("CCOC(=O)[C@H](CC(C)C)NC(=O)CCC1CC(OC(=O)NCc2ccc3c(c2)OCO3)CC2(CCCC(COC(=O)NCCc3ccc(Cl)cc3)O2)O1 (some centres not stated)")
-0.0556
>>> measured_value("C#CCCCON=C1C[C@@H](O)[C@@H](O)[C@@H]2[C@@H]3C(=O)N(C[C@@H]4CCCO4)C(=O)[C@@H]3CC[C@H]12")
-0.096
>>> measured_value("COC(=O)[C@H](C)NC(=O)CCC1CC(OC(=O)NCc2cccc3ccccc23)CC2(CCCC(COC(=O)NCCOc3ccccc3)O2)O1 (some centres not stated)")
-0.251
>>> measured_value("COC(=O)[C@@H]1CC[C@H](C)[C@@H](c2ccc(Br)cc2)N1C(=O)C(F)(F)F")
-0.226
>>> measured_value("COC(=O)CC=C[C@@H](C)[C@@H](C=NOC[C@@H](O)[C@H]1O[C@@H]2OC(C)(C)O[C@@H]2[C@H]1O)OC")
-0.012
>>> measured_value("CC(C)=CCCC(C)=CCON=C1C[C@@H](O)[C@@H](O)[C@@H]2[C@@H]3C(=O)N(C4CCCCC4)C(=O)[C@@H]3CC[C@H]12")
-0.0425

The values you see were collected from PubChem BioAssay.
